Quick reference: Activity (%) of the listed items.
- System: P. berghei ANKA strain
- Test Protocol: Divided 3x3 mg/kg and 3x1 mg/kg po doses in infected mice
- Assay type: in vivo, Plasmodium berghei
- Condition Summary: 3 × 3 mg/kg p.o. SSV on days 1, 2, 3 post-infection; percent reduction of parasitemia vs control on day 4

| Molecule | System Name | Activity (%) |
| --- | --- | --- |
| C[C@H]1[C@H](OC(=O)CCC(=O)O)O[C@@H]2O[C@@]3(C)CC[C@H]4[C@H](C)CC[C@@H]1[C@@]24OO3 [AS, artesunate, reference compound] | P. berghei ANKA strain | 78 |
| OC(c1cc(C(F)(F)F)nc2c(C(F)(F)F)cccc12)C1CCCCN1 (centres unmarked) [MFQ, mefloquine, reference compound] | P. berghei ANKA strain | 98 |
| NC1(C(=O)NCC2CCC3(CC2)OOC2(O3)C3CC4CC(C3)CC2C4)CCCC1 (centres unmarked) | P. berghei ANKA strain | 100 |
| CS(=O)(=O)O.O=C(O)CNCC1CCC2(CC1)OOC1(O2)C2CC3CC(C2)CC1C3 (centres unmarked) | P. berghei ANKA strain | 99 |
| O=C1CN(C(=O)CC2CCC3(CC2)OOC2(O3)C3CC4CC(C3)CC2C4)CCN1 (centres unmarked) | P. berghei ANKA strain | 94 |
| c1cc(OC[C@H]2CC[C@]3(CC2)OO[C@]2(O3)C3CC4CC(C3)CC2C4)ccn1 | P. berghei ANKA strain | 100 |
| NC(=O)CNC(=O)CC1CCC2(CC1)OOC1(O2)C2CC3CC(C2)CC1C3 (centres unmarked) | P. berghei ANKA strain | 99.75 |
| NCC(=O)NC[C@H]1CC[C@]2(CC1)OO[C@]1(O2)C2CC3CC(C2)CC1C3 | P. berghei ANKA strain | 99.99 |

* * *

- Test Protocol: Pharmacokinetics in dogs (IV and oral dosing)
- Condition Summary: in vivo; dog, oral 25 mg/kg; some values marked (V), not defined; read-out: Dog Oral Bioavailability 25 mg/kg

| Compound | bioavailability (%) |
| --- | --- |
| NC[C@H]1CC[C@]2(CC1)OOC1(O2)C2CC3CC(C2)CC1C3 (stereo partly shown) | 15.9 |
| Cc1ccc(S(=O)(=O)O)cc1.O=C(C[C@H]1CC[C@]2(CC1)OO[C@]1(O2)C2CC3CC(C2)CC1C3)N1CCNCC1 | 55.7 |
| NC(=O)CNC[C@H]1CC[C@]2(CC1)OOC1(O2)C2CC3CC(C2)CC1C3 (stereo partly shown) | 38.3 |
| CC(C)(N)CNC(=O)C[C@H]1CC[C@]2(CC1)OO[C@]1(O2)C2CC3CC(C2)CC1C3 | 96.1 |

* * *

- Test system: ANKA strain of P. berghei
- Test Protocol: Single dose STI in vivo screen in infected mice
- Set-up: species or system Plasmodium berghei
- Condition Summary: single 10 mg/kg po in SSV; untreated 6-7 days
Use 1 (yes) when the recorded Survival (days) 10 mg/kg SSV po is no lower than 8 days; use 0 (no) when it is lower.

| Compound | Assigned Class |
| --- | --- |
| NCC(=O)NC[C@H]1CC[C@]2(CC1)OO[C@]1(O2)C2CC3CC(C2)CC1C3 | 1 (yes) |
| CN1CCN(C(=O)N2CCC3(CC2)OOC2(O3)C3CC4CC(C3)CC2C4)CC1 (centres unmarked) | 1 (yes) |
| O=C(COc1ccc(Cl)cc1)N1CCC2(CC1)OOC1(O2)C2CC3CC(C2)CC1C3 (centres unmarked) | 0 (no) |
| O=C(NC[C@H]1CC[C@]2(CC1)OOC1(O2)C2CC3CC(C2)CC1C3)c1ccccc1C(=O)NC[C@H]1CC[C@]2(CC1)OOC1(O2)C2CC3CC(C2)CC1C3 (some centres unmarked) | 0 (no) |
| NC(=O)NC[C@H]1CC[C@]2(CC1)OOC1(O2)C2CC3CC(C2)CC1C3 (some centres unmarked) | 1 (yes) |
| O=C(NO)[C@H]1CC[C@]2(CC1)OOC1(O2)C2CC3CC(C2)CC1C3 (some centres unmarked) | 1 (yes) |
| O=S(=O)(C[C@H]1CC[C@]2(CC1)OO[C@]1(O2)C2CC3CC(C2)CC1C3)c1cccc[n+]1[O-] | 1 (yes) |

* * *

- Test Protocol: Pharmacokinetics in rats (IV and oral dosing)
- Condition Summary: in vivo; rat, oral 10 mg/kg; read-out: Rat Oral Bioavailability 10 mg/kg

| Compound | bioavailability (%) |
| --- | --- |
| Cc1ccc(S(=O)(=O)O)cc1.O=C(C[C@H]1CC[C@]2(CC1)OO[C@]1(O2)C2CC3CC(C2)CC1C3)N1CCNCC1 [OZ279] | 37.2 |

* * *

- Tested on: P. berghei ANKA strain
- Test Protocol: Prophylactic activity, single 100 mg/kg po at various times before infection
- Assay type: in vivo, Plasmodium berghei
- Condition Summary: single 100 mg/kg po 24 h before infection; parasitemia reduction on day 3 post-infection
Mark each entry MET if its Prophylactic Activity (%) 24 h sits below 80%, and NOT MET for all others.

| Compound | Assigned Class |
| --- | --- |
| CC(C)(N)C(=O)NC[C@H]1CC[C@]2(CC1)OOC1(O2)C2CC3CC(C2)CC1C3 (stereo partly drawn) | NOT MET |
| NC[C@H]1CC[C@]2(CC1)OOC1(O2)C2CC3CC(C2)CC1C3 (stereo partly drawn) | NOT MET |
| CO[C@H]1O[C@@H]2O[C@@]3(C)CC[C@H]4[C@H](C)CC[C@@H]([C@H]1C)[C@@]24OO3 [AM, artemether, reference compound] | MET |
| NCC(=O)NC[C@H]1CC[C@]2(CC1)OO[C@]1(O2)C2CC3CC(C2)CC1C3 | NOT MET |
| C[C@H]1[C@H](OC(=O)CCC(=O)O)O[C@@H]2O[C@@]3(C)CC[C@H]4[C@H](C)CC[C@@H]1[C@@]24OO3 [AS, artesunate, reference compound] | MET |
| CC(C)(N)CNC(=O)C[C@H]1CC[C@]2(CC1)OO[C@]1(O2)C2CC3CC(C2)CC1C3 | MET |
| OC(c1cc(C(F)(F)F)nc2c(C(F)(F)F)cccc12)C1CCCCN1 (stereo not drawn) [MFQ, mefloquine, reference compound] | NOT MET |
| Cc1ccc(S(=O)(=O)O)cc1.O=C(C[C@H]1CC[C@]2(CC1)OO[C@]1(O2)C2CC3CC(C2)CC1C3)N1CCNCC1 | NOT MET |

* * *

- System: chloroquine-resistant K1 strain of P. falciparum
- Test Protocol: In vitro antimalarial semiautomated microdilution assay ([3H]-hypoxanthine incorporation), K1 strain
- Assay type: cell-based, Plasmodium falciparum
- Condition Summary: Plasmodium falciparum, K1, 72 h, read-out: IC50 (ng/ml) K1, chloroquine-resistant K1 strain, 72 h incubation
- Procedure: Various OZ compounds were tested by the semiautomated microdilution assay against intraerythrocytic forms of Plasmodium falciparum derived from asynchronous stock cultures. Fifty percent inhibitory concentration (IC50) were estimated by Logit regression analysis.
Structures can show the parent of a compound that is named as a salt.
Using IC50 as the sorting value, the categories are LOW (below 2 ng/mL), MID (2 ng/mL to below 6 ng/mL), HIGH (6 ng/mL or more)

| Molecule | System Name | Assigned Class |
| --- | --- | --- |
| O=C1c2ccccc2C(=O)N1[C@H]1CC[C@]2(CC1)OOC1(O2)C2CC3CC(C2)CC1C3 (some centres unmarked) | chloroquine-resistant K1 strain of P. falciparum | HIGH |
| NC(=O)OC1CCC2(CC1)OOC1(O2)C2CC3CC(C2)CC1C3 (centres unmarked) | chloroquine-resistant K1 strain of P. falciparum | LOW |
| c1ccc2c(c1)-c1ccccc1C21OOC2(O1)C1CC3CC(C1)CC2C3 (centres unmarked) | chloroquine-resistant K1 strain of P. falciparum | HIGH |
| O=S(=O)(c1cccc2cccnc12)N1CCC2(CC1)OOC1(O2)C2CC3CC(C2)CC1C3 (centres unmarked) | chloroquine-resistant K1 strain of P. falciparum | MID |
| CCOC(=O)c1ccc(OC[C@H]2CC[C@]3(CC2)OOC2(O3)C3CC4CC(C3)CC2C4)cc1 (some centres unmarked) | chloroquine-resistant K1 strain of P. falciparum | HIGH |
| O=C(O)c1ccccc1C(=O)N1CCC2(CC1)OOC1(O2)C2CC3CC(C2)CC1C3 (centres unmarked) | chloroquine-resistant K1 strain of P. falciparum | HIGH |
| CCOC(=O)N1C2CCC1CC1(C2)OOC2(O1)C1CC3CC(C1)CC2C3 (centres unmarked) | chloroquine-resistant K1 strain of P. falciparum | MID |
| O=[N+]([O-])c1cc(C2(c3ccc(Cl)c([N+](=O)[O-])c3)OOC3(O2)C2CC4CC(C2)CC3C4)ccc1Cl (centres unmarked) | chloroquine-resistant K1 strain of P. falciparum | HIGH |
| O=C(NO)[C@H]1CC[C@@]2(CC1)OOC1(O2)C2CC3CC(C2)CC1C3 (some centres unmarked) | chloroquine-resistant K1 strain of P. falciparum | LOW |
| COC(=O)c1ccc(C[C@H]2CC[C@]3(CC2)OOC2(O3)C3CC4CC(C3)CC2C4)cc1 (some centres unmarked) | chloroquine-resistant K1 strain of P. falciparum | HIGH |
| NCC1(c2ccccc2)CCC2(CC1)OOC1(O2)C2CC3CC(C2)CC1C3 (centres unmarked) [OZ117, hydrochloride] | chloroquine-resistant K1 strain of P. falciparum | MID |
| C1C2CC3CC1CC(C2)C31OOC2(CCC(NC3CC3)CC2)O1 (centres unmarked) [OZ185, hydrochloride] | chloroquine-resistant K1 strain of P. falciparum | LOW |
| COC(=O)c1ccc(C2(c3ccc(C(=O)OC)c(C(=O)OC)c3)OOC3(O2)C2CC4CC(C2)CC3C4)cc1C(=O)OC (centres unmarked) | chloroquine-resistant K1 strain of P. falciparum | MID |
| O=C(NO)c1ccc([C@H]2CC[C@]3(CC2)OOC2(O3)C3CC4CC(C3)CC2C4)cc1 (some centres unmarked) | chloroquine-resistant K1 strain of P. falciparum | LOW |
| C1=C(c2ccccc2)CCC2(C1)OOC1(O2)C2CC3CC(C2)CC1C3 (centres unmarked) | chloroquine-resistant K1 strain of P. falciparum | MID |
| O=[N+]([O-])c1ccc(C2(c3ccccc3)OOC3(O2)C2CC4CC(C2)CC3C4)cc1 (centres unmarked) | chloroquine-resistant K1 strain of P. falciparum | MID |
